test system: RAW264.7; test: Antiproliferative activity against mouse RAW 264.7 preosteoclast cells assessed as reduction in cell viability incubated for 24 hrs by MTS viability assay; format: functional, cell-based; conditions: RAW264.7, 24 h
observedProperty: IC50 (nM)
A number alone suffices; assume nM.

Ask | Suppose we examine the compound O[C@]12C=C(c3nccc4c3[nH]c3ccccc34)[C@@H]3CCN(CCCC/C=C\CC1)C[C@@]31C[C@@H]3/C=C\CCCCN3[C@H]12 [MANZAMINE A] ; what IC50 value has been reported?
Reply | 2500
